# pKa annotations

>>> result("Cc1nc(N)nc(C)c1CNC(=O)Cn1c(C)ccc(NS(=O)(=O)Cc2ccccc2)c1=O")
4.7
>>> result("CC(C)n1c(/C=C/C(O)CC(O)CC(=O)O)c(-c2ccc(F)cc2)c2ccccc21 (centres undefined)")
4.31
>>> result("CS(=O)(=O)Nc1ccc(Nc2c3ccccc3nc3cccc(Cl)c23)cc1")
5.86
>>> result("Cc1cnc(NCCc2ccccc2)c(=O)n1CC(=O)NCc1ccc(C(=N)N)s1")
10.3
>>> result("Cc1ccc(NS(=O)(=O)Cc2ccccc2)c(=O)n1CC(=O)NCc1ccc(C(=N)N)c(F)c1")
9.2
>>> result("FC(F)(F)c1c(N2CCC(c3ccccc3)CC2)ccn2c(CC3CC3)nnc12")
4.1

For CS(=O)(=O)Nc1ccc(Nc2c3ccccc3nc3ccccc23)cc1 , what is its reported pKa?
7.19

For CS(=O)(=O)Nc1ccc(Nc2c3ccccc3nc3cc(S(C)(=O)=O)ccc23)cc1 , what is its reported pKa?
5.65

For Cc1ccc(S(=O)(=O)c2nc(N3CCc4ccccc4C3)sc2Cl)cc1 , what is its reported pKa?
-3.78

* * *

Label scheme for pKa: lower than 8 is not fulfilled, 8 and above is fulfilled.

>>> label("CCCCCCCOC(=O)c1ccc(OS(N)(=O)=O)cc1")
"fulfilled"
>>> label("Oc1nsc2c1CCNC2")
"fulfilled"
>>> label("Brc1ncc[nH]1")
"not fulfilled"
>>> label("CCS(=O)(=O)Nc1ccc(Nc2c3ccccc3nc3ccccc23)cc1")
"not fulfilled"
>>> label("COC(=O)c1ccc(Nc2c3ccccc3nc3ccccc23)cc1")
"not fulfilled"
>>> label("C[C@H](CCC(=O)O)[C@H]1CC[C@H]2[C@@H]3[C@@H](O)C[C@@H]4C[C@H](O)CC[C@]4(C)[C@H]3CC[C@]12C")
"not fulfilled"

Assess whether reported pKa for CS(=O)(=O)Nc1ccc(Nc2c3ccccc3nc3ncccc23)cc1 sits at 8 or higher.
not fulfilled

* * *

# pKa annotations
Provide a numeric answer; units are not to be included.

>>> result_number("Cc1ccc(N=C2NCCN2)c(Cl)c1")
9.41
>>> result_number("NC1OC(CO)C(O)C(O)C1O (stereo unspecified)")
5.6
>>> result_number("CN(C)C(=O)C1=C(C(=O)N(C)C)C2c3ccccc3C1c1ccccc12")
-2.68
>>> result_number("Cc1cnc(NCC(F)(F)c2ccccc2)c(=O)n1CC(=O)NCc1cnc(N)cn1")
2.7
>>> result_number("NC(N)=Nc1nc(CSCC/C(N)=N/S(N)(=O)=O)cs1")
7.1

Now for a further compound.
For CCCS(=O)(=O)Nc1ccc(Nc2c3ccccc3nc3ccccc23)cc1 , what is its reported pKa?
7.2

* * *

Label scheme for pKa: lower than 7 is no, 7 and above is yes.

>>> label("Cc1ccc(C(=O)N(CCCN)[C@@H](c2oc3cc(Cl)ccc3c(=O)c2Cc2ccccc2)C(C)C)cc1")
"yes"
>>> label("COc1ccc2c(c1)N(CCN(C)C)CCO2")
"yes"

Assess whether reported pKa for Nc1nc2ccccc2[nH]1 sits at 7 or higher.
yes

Assess whether reported pKa for COc1cccc(S(=O)(=O)Nc2cccn(CC(=O)NCc3ccc(C(=N)N)cc3)c2=O)c1 sits at 7 or higher.
yes

Assess whether reported pKa for COc1ccc(Nc2c3ccccc3nc3ccccc23)cc1 sits at 7 or higher.
yes

Assess whether reported pKa for Fc1cccc(Cl)c1N=C1NCCN1 sits at 7 or higher.
yes

Assess whether reported pKa for Fc1cccc(F)c1N=C1NCCN1 sits at 7 or higher.
yes

Assess whether reported pKa for CCC1(c2ccccc2)C(=O)NC(=O)NC1=O sits at 7 or higher.
yes

Assess whether reported pKa for CS(=O)(=O)Nc1ccc(Nc2c3ccccc3nc3ccc([N+](=O)[O-])cc23)cc1 sits at 7 or higher.
no

Assess whether reported pKa for Cc1cccc(Nc2c3ccccc3nc3ccccc23)c1 sits at 7 or higher.
yes
